This collection of values is drawn from the supplement of paper PMC9112550.

- Test system: Escherichia coli TOP10;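 also: peptides expressed intracellularly from a pBAD plasmid library in pooled LB shake-flask culture, induced with 0.3% L-arabinose, DNA abundance read by NGS, three biological replicates, DESeq2 with apeglm shrinkage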
- EXPERIMENT DESCRIPTION: shrunken log2 fold change of peptide-encoding DNA abundance (4.5 h post-induction vs induction); higher = less antimicrobial activity (less host growth inhibition)
- CONDITION SUMMARY: time post-induction: 4.5 h; library: site-saturation at positions 5, 18, 19, 20
Provide the reported shrunken log2 fold change of each item.
Quick one: just the number, no unit, thanks!

Query: Consider the sequence RRIRGRPPRLPRPRPRPWDYPRP and give its measured shrunken log2 fold change.
Response: 0.183

Query: // shrunken log2 fold change lookup, key: RRIRHRPPRLPRPRPRPYTLPRP
Response: -0.611

Query: Given the entry RRIRCRPPRLPRPRPRPNPDPRP , report its measured shrunken log2 fold change.
Response: -0.306

Query: Value lookup for shrunken log2 fold change; key = RRIRIRPPRLPRPRPRPATVPRP
Response: -0.319

Query: State the recorded shrunken log2 fold change for this entry: RRIRLRPPRLPRPRPRPFPKPRP
Response: -0.103

Query: shrunken log2 fold change lookup needed for RRIRTRPPRLPRPRPRPMHCPRP , thanks.
Response: -0.235

Query: Fill in: shrunken log2 fold change of RRIRPRPPRLPRPRPRPIWCPRP is ___
Response: 0.0267

Query: For RRIRDRPPRLPRPRPRPVANPRP , what is its reported shrunken log2 fold change?
Response: -0.0229

Query: Return reported shrunken log2 fold change; argument: RRIRVRPPRLPRPRPRPTGFPRP
Response: 0.0174
